Values from paper PMC6268373

- method description: pKa determination with Sirius instrument (PCA200)
quantity name: pKa 2 (Sirius)

NCCCCC(O)(P(=O)(O)O)P(=O)(O)O [Compound 3] ... 1.92
NCCCCCCCC(O)(P(=O)(O)O)P(=O)(O)O [Compound 5] ... 3.10
NCCCCCC(O)(P(=O)(O)O)P(=O)(O)O [Compound 4, reference compound] ... 2.99
NCCC(O)(P(=O)(O)O)P(=O)(O)O [Compound 1] ... 2.32

* * *

- method description: Thermal analysis (TG/DTA and TGA 7)
- Type: physicochemical
- details: TG/DTA, higher crucible
- From the text: Thermal decomposition paths with evaluation of crystal water content were obtained parallel with two instruments; Perkin Elmer STA 6000 thermogravimetric TG/DTA and Perkin Elmer TGA 7 analyzers (Perkin Elmer, Massachusetts, USA). […] The melting/dehydration/decomposition behavior of the compounds was also visually monitored using a Stuart Scientific SMP3 melting point apparatus.
quantity name: Onset temperature of first cleavage (°C)

NCCCCC(O)(P(=O)(O)O)P(=O)(O)O ... 217
NCCC(O)(P(=O)(O)O)P(=O)(O)O ... 149
NCCCCCCCCCC(O)(P(=O)(O)O)P(=O)(O)O ... 185

a: NCCCCCCCCCCC(O)(P(=O)(O)O)P(=O)(O)O
b: NCCCCCCCCCCCC(O)(P(=O)(O)O)P(=O)(O)O
[Q] Field: lower Onset temperature of first cleavage | Options: a / b Selection: enter the item's label.
[A] a

I: NCCCCCCCCCCCCCCCC(O)(P(=O)(O)O)P(=O)(O)O
II: NCCCCCCCCC(O)(P(=O)(O)O)P(=O)(O)O
[Q] Just curious, which one has the larger Onset temperature of first cleavage reading, I or II ? Pick one and reply with its label.
[A] I
